Here the recorded n (Hill coefficient) is given for each entry.
- system: ELIC (Dickeya chrysanthemi, UniProt P0C7B7)
- Construct: expressed in transfected cells; host or cells: Xenopus laevis oocytes (cRNA injection, pTLN vector)
- Sequence (P0C7B7 whole entry): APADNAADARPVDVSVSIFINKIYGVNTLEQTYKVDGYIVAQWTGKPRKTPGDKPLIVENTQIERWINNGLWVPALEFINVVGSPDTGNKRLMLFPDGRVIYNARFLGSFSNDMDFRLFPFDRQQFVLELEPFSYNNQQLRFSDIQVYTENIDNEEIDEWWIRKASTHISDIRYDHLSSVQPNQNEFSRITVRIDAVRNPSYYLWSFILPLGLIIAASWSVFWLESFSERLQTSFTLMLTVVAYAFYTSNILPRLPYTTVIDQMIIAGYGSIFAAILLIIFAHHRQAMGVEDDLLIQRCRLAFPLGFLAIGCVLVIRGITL
- assay-remarks: cell-based
- Format: cell-based, Erwinia chrysanthemi
- condition-label: WT, pH 7.0

Worked cases, answers included:
[
  {
    "structure": "NCCCBr",
    "n (Hill coefficient)": 3.9
  },
  {
    "structure": "NCCCCO",
    "n (Hill coefficient)": 2.9
  },
  {
    "structure": "CCCN",
    "n (Hill coefficient)": 3.0
  },
  {
    "structure": "NCCS",
    "n (Hill coefficient)": 2.7
  },
  {
    "structure": "NCCCC(=O)O",
    "n (Hill coefficient)": 3.9
  }
]

Recorded result, NCCBr , n (Hill coefficient): 3.1
